- Measurement target: C5aR (Homo sapiens (Human), UniProt P21730)
- Sequence (P21730 whole entry): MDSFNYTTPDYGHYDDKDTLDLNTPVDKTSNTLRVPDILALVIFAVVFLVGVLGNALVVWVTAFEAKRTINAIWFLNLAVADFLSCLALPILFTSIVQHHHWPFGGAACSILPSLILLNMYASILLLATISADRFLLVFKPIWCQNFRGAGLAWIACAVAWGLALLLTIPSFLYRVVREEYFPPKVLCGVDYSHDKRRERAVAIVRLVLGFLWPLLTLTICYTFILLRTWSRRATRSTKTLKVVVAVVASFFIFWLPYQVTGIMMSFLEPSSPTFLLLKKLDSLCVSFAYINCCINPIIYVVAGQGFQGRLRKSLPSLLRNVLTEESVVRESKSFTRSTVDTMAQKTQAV
- Run description: Calcium mobilization (U937/C5aR or HEK293/C5aR cells, FLIPR)
- Type: cell-based
- Study conditions: agonist human C5a at EC80, FLIPR
Endpoint name: IC50

{"Molecule": "Cc1ccc(NC(=O)C2C[C@@H]3CN(C)C[C@@H]3N(C(=O)c3c(C)cccc3F)C2c2ccc(N(C)C3CCCC3)cc2)cc1C(F)(F)F (relative stereo)", "Measurement target": "C5aR (Homo sapiens (Human), UniProt P21730)", "IC50": "2000 to 10000 nM"}

Lab note: each molecule below needs its IC50 filled in.
1. Cc1cccc(F)c1C(=O)N1[C@@H]2CCC[C@@H]2C[C@H](C(=O)Nc2ccc(Cl)c(C(F)(F)F)c2)[C@@H]1c1ccc(NC2CCCC2)cc1 (racemic)
2. Cc1cccc(F)c1C(=O)N1C(c2ccc(NC3CCOCC3)cc2)C(C(=O)Nc2cnn(C)c2)C[C@@H]2COC[C@@H]21 (relative stereo)
3. Cc1ncc(NC(=O)[C@H]2C[C@H]3CCC[C@H]3N(C(=O)c3c(C)cccc3F)[C@H]2c2ccc(NC3CCCC3)cc2)cn1 (racemic)
4. Cc1ccc(NC(=O)[C@H]2CCCN(S(=O)(=O)c3cccc4ccccc34)[C@H]2c2ccc(NC3CCCC3)cc2)cc1C(F)(F)F
5. Cc1cccc(F)c1C(=O)N1[C@@H]2CCC[C@@H]2C[C@H](C(=O)Nc2ccc3ncsc3c2)[C@@H]1c1ccc(NC2CCCC2)cc1 (racemic)

Data returned:
50 to 500 nM
2000 to 10000 nM
50 to 500 nM
2000 to 10000 nM
2000 to 10000 nM

Data provenance: patent US20240043439A1
